- experimental-target: ZFP SBS#513 (synthetic)
- Sequence (chain, as listed by the source): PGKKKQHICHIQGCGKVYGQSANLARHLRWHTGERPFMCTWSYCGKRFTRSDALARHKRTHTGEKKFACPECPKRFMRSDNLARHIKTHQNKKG
- protocol-notes: EMSA
- experimental-conditions: tags: MBP fusion

binder: GAGGTGGAAG (dsDNA) DNA 1: GAGGTGGAAG DNA 2: CTTCCACCTC
Kd (nM): 1.5
